This listing pairs compounds with measured GI50.
tested on: Colo205 colon cancer cell line; assay: MTT assay, 48 h continuous drug exposure, Colo205; type: cell-based, human; conditions: 48 h exposure
# value in nM; strip the unit string

Known GI50 results, listed for orientation:
| compound | target of assay | GI50, nM |
| --- | --- | --- |
| COc1ccc(Oc2ccc(C(=O)N3CCN(CCCCCOc4cc5c(cc4OC)C(=O)N4CCC[C@H]4C=N5)CC3)cc2[N+](=O)[O-])cc1 [31c] | Colo205 colon cancer cell line | 170 |
| COc1cc2c(cc1OCCCCCOc1ccc(Oc3cc(OC)c(OC)c(OC)c3)c(I)c1)N=C[C@@H]1CCCN1C2=O [18c] | Colo205 colon cancer cell line | 3120 |
| COc1ccc(Oc2ccc(C(=O)N3CCN(CCCCCOc4cc5c(cc4OC)C(=O)N4CCC[C@H]4C=N5)CC3)cc2N)cc1 [22c] | Colo205 colon cancer cell line | 170 |
| COc1cc2c(cc1OCCCCCOc1cccc(Oc3cc(OC)c(OC)c(OC)c3)c1[N+](=O)[O-])N=C[C@@H]1CCCN1C2=O [21g] | Colo205 colon cancer cell line | 170 |
| COc1ccc(Oc2ccc(OCCCCCOc3cc4c(cc3OC)C(=O)N3CCC[C@H]3C=N4)cc2I)cc1OC [17c] | Colo205 colon cancer cell line | 2260 |

# GI50 measured on Colo205 colon cancer cell line for item COc1ccc(Oc2cc(OCCCCCOc3cc4c(cc3OC)C(=O)N3CCC[C@H]3C=N4)ccc2N)cc1OC [11g] = 170

# GI50 measured on Colo205 colon cancer cell line for item COc1ccc(Oc2cc(OCCCCCOc3cc4c(cc3OC)C(=O)N3CCC[C@H]3C=N4)ccc2I)cc1OC [17g] = 2200

###

system: Colo205 colon cancer cell line; experiment: MTT assay, 48 h continuous drug exposure, Colo205; assay type: cell-based, human; details: 48 h exposure
Values of GI50 strictly less than 0.2 µM map to rule met, and values of at least 0.2 µM map to rule not met.

Answered examples (5):
| compound | group |
| --- | --- |
| COc1ccc(Oc2ccc(OCCCCCOc3cc4c(cc3OC)C(=O)N3CCC[C@H]3C=N4)cc2I)cc1 [16c] | rule not met |
| COc1ccc(Oc2cc(OCCCCCOc3cc4c(cc3OC)C(=O)N3CCC[C@H]3C=N4)ccc2N)cc1 [10g] | rule not met |
| COc1ccc(Oc2cccc(OCCCCCOc3cc4c(cc3OC)C(=O)N3CCC[C@H]3C=N4)c2[N+](=O)[O-])cc1OC [20g] | rule met |
| COc1cc2c(cc1OCCCCCOc1ccc(N)c(Oc3cc(OC)c(OC)c(OC)c3)c1)N=C[C@@H]1CCCN1C2=O [12g] | rule met |
| COc1ccc(Oc2ccc(OCCCCCOc3cc4c(cc3OC)C(=O)N3CCC[C@H]3C=N4)cc2[N+](=O)[O-])cc1OC [20c] | rule met |

Request: Decide: GI50 of COc1ccc(Oc2ccc(C(=O)N3CCN(CCCCCOc4cc5c(cc4OC)C(=O)N4CCC[C@H]4C=N5)CC3)cc2N)cc1OC [23c] strictly below 0.2 µM?
Result: rule met

Request: Decide: GI50 of COc1ccc(Oc2ccc(C(=O)N3CCN(CCCCCOc4cc5c(cc4OC)C(=O)N4CCC[C@H]4C=N5)CC3)cc2[N+](=O)[O-])cc1OC [32c] strictly below 0.2 µM?
Result: rule met

Request: Decide: GI50 of COc1cc2c(cc1OCCCCCOc1ccc(Oc3cc(OC)c(OC)c(OC)c3)c([N+](=O)[O-])c1)N=C[C@@H]1CCCN1C2=O [21c] strictly below 0.2 µM?
Result: rule not met

Request: Decide: GI50 of COc1ccc(Oc2cccc(OCCCCCOc3cc4c(cc3OC)C(=O)N3CCC[C@H]3C=N4)c2[N+](=O)[O-])cc1 [19g] strictly below 0.2 µM?
Result: rule met

Request: Decide: GI50 of COc1cc2c(cc1OCCCCCN1CCN(C(=O)c3ccc(Oc4cc(OC)c(OC)c(OC)c4)c(N)c3)CC1)N=C[C@@H]1CCCN1C2=O [24c] strictly below 0.2 µM?
Result: rule not met

Request: Decide: GI50 of COc1cc2c(cc1OCCCCCN1CCN(C(=O)c3ccc(Oc4cc(OC)c(OC)c(OC)c4)c([N+](=O)[O-])c3)CC1)N=C[C@@H]1CCCN1C2=O [33c] strictly below 0.2 µM?
Result: rule met
